biological target: histamine H4 receptor (Homo sapiens, UniProt Q9H3N8); test: H4 Membrane Binding Assay (3H-Histamine displacement); settings: membranes of recombinant HEK293SFM cells, 10 nM 3H-Histamine, 1.5 hr at room temperature
Sequence (Q9H3N8 whole entry): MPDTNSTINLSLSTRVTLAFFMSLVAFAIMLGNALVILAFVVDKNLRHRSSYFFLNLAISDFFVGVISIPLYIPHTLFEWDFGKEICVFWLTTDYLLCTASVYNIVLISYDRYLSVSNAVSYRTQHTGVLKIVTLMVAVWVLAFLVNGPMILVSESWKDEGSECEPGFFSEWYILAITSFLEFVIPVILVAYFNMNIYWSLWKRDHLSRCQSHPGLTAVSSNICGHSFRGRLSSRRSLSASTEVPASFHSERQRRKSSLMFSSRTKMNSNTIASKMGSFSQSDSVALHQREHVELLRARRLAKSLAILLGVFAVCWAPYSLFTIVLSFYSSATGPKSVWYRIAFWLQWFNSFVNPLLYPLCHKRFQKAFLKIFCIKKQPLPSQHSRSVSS
assay_endpoint: IC50 (nM)
# number only, unit nM dropped from output

Below: 2 compounds and their reported IC50.
CN1CCN(c2cc(-c3ccc4c(c3)CN(C(=O)CC(C)(C)C#N)CC4)nc(N)n2)CC1 [Example 121] :: 39
CN1CCN(c2cc(-c3ccc4c(c3)CN(C(=O)N(C)C3CCCCC3)CC4)nc(N)n2)CC1 [Example 81] :: 163

Ask: I would be grateful if you could share the reported IC50 for CN1CCN(c2nc(N)nc3cc(C(=O)NC(Cc4cccc(Oc5cc(C#N)ccc5C(F)(F)F)c4)C(=O)N(C)C)ccc23)CC1 (centres unmarked) [Example 171] .
Reply: 13

Ask: Reported IC50, compound COc1cccc(-c2ccc(C[C@H](NC(=O)c3ccc4c(N5CCN(C)CC5)nc(N)nc4c3)C(=O)N(C)C)cc2)n1 [Example 153] : ____
Reply: 19

Ask: Using the record for COc1cccc(COc2ccc3c(c2)C(NC(=O)c2ccc4c(N5CCN(C)CC5)nc(N)nc4c2)CCC3)c1 (centres unmarked) [Example 203] , report its IC50.
Reply: 17

Ask: Would you kindly share the measured IC50 for CO[C@H]1CCCC[C@H]1NC(=O)N1CCc2ccc(-c3cc(N4CCN(C)CC4)nc(N)n3)cc2C1 (relative stereo) [Example 55] ?
Reply: 120

Ask: Give its IC50 value. Item: CN1CCN(c2nc(N)nc3cc(C(=O)N[C@@H](Cc4ccc(-c5cncc(C#N)c5)cc4)C(=O)N(C)C)ccc23)CC1 [Example 156]
Reply: 41

---

target: histamine H4 receptor (Homo sapiens); construct: expressed in transfected cells; host or cells: HEK293SFM cells (membrane preparation); test: H4 Membrane Binding Assay (3H-Histamine displacement); details: membranes of recombinant HEK293SFM cells, 10 nM 3H-Histamine, 1.5 hr at room temperature
assay_endpoint: pIC50
# pIC50 = -log10(concentration in molar units)

Take a look at these entries with their results.
COC(=O)c1ccc(NC(=O)N2CCc3ccc(-c4cc(N5CCN(C)CC5)nc(N)n4)cc3C2)nc1 [Example 45] :: 7.22
CC(Cc1ccc(OC2CCCC2)cc1)NC(=O)c1ccc2c(N3CCN(C)CC3)nc(N)nc2c1 (stereo not shown) [Example 143] :: 7.43
CN1CCN(c2cc(-c3ccc4c(c3)CN(C(=O)Nc3ccc(-n5cccn5)cc3)CC4)nc(N)n2)CC1 [Example 93] :: 7.37
CN1CCN(c2cc(-c3ccc4c(c3)CN(C(=O)CC(C#N)c3ccccc3)CC4)nc(N)n2)CC1 (stereo not shown) [Example 124] :: 7.44
CN1CCN(c2cc(-c3ccc4c(c3)CN(c3ccc(-c5ccc(C#N)cc5)cn3)CC4)nc(N)n2)CC1 [Example 18] :: 7.47
CO[C@H]1Cc2ccccc2[C@H]1NC(=O)N1CCc2ccc(-c3cc(N4CCN(C)CC4)nc(N)n3)cc2C1 [Example 58] :: 6.78

--- query ---
Ask: Endpoint output: pIC50 of CN1CCN(c2nc(N)nc3cc(C(=O)NCc4cccc(OCc5cccc(C#N)c5)c4)ccc23)CC1 [Example 192] . Value?
Reply: 8.20
